Listed next: entries and their corresponding pIC50.
TARGET OF ASSAY: human carbonic anhydrase II (Homo sapiens)
EXPERIMENT SUMMARY: Carbonic anhydrase inhibition, photometric, nitrophenyl acetate conversion (CA II)
Assay type: biochemical
CONDITIONS USED: human carbonic anhydrase II; read-out: CA II IC50
Keep it numeric: pIC50 is minus log10 of the concentration in mol/L.

MOLECULE | EXPERIMENTAL VALUE
C[C@]12CC[C@@H]3c4ccc(O)cc4CC[C@H]3[C@@H]1CC[C@@H]2OS(=O)(=O)c1cccc(S(N)(=O)=O)c1 | 7.09
C[C@@H]1CC2=CC(=O)CC[C@]2(C)[C@H]2CC[C@]3(C)[C@@H](OS(=O)(=O)c4cccc(S(N)(=O)=O)c4)CC[C@H]3[C@H]12 | 6.92

# ---- query molecule ----
Ask: Recorded pIC50 for C[C@]12CC[C@@H]3c4ccc(OS(N)(=O)=O)cc4CC[C@H]3[C@@H]1CC[C@@H]2O [Estradiol-3-sulfamat, Estradiol-3-sulfamate, reference compound] , please?
Result: 7.47

* * *

EXPERIMENT SUMMARY: Hydrolysis in aqueous buffer of various pH values at 37° C., HPLC
Assay type: physicochemical
CONDITIONS USED: pH = 1, 37° C., 24 h
EXPERIMENTAL READOUT: Decomposition in % (%)
Write down the numeric answer in % and omit the unit.

Ask: // lookup Decomposition in % for C[C@@H]1CC2=CC(=O)CC[C@]2(C)[C@H]2CC[C@]3(C)[C@@H](OS(=O)(=O)c4cccc(S(N)(=O)=O)c4)CC[C@H]3[C@H]12
Result: 71

* * *

EXPERIMENT SUMMARY: Hydrolysis in aqueous buffer of various pH values at 37° C., HPLC
Format: physicochemical
CONDITIONS USED: pH = 7.4, 37° C., 1 h
EXPERIMENTAL READOUT: Decomposition in % (%)
Kindly answer with a numeric value in %, unit omitted.

A selection of reference data follows.
COMPOUND | OUTPUT UNIT | Decomposition in %
CCC(=O)O[C@H]1CC[C@H]2[C@@H]3CCC4=CC(=O)CC[C@]4(C)[C@H]3CC[C@]12C [Testosterone Propionate, 3-Oxoandrost-4-en-17β-yl n-propionate, reference compound] | % | 0
C[C@]12CC[C@@H]3c4ccc(O)cc4CC[C@H]3[C@@H]1CC[C@@H]2OS(=O)(=O)c1cccc(S(N)(=O)=O)c1 | % | 6
C[C@]12CC[C@H]3[C@@H](CCC4=CC(=O)CC[C@@]43C)[C@@H]1CC[C@@H]2OS(=O)(=O)c1cccc(S(N)(=O)=O)c1 | % | 6

Next compound, Decomposition in % to be filled in.
Ask: Item C[C@@H]1CC2=CC(=O)CC[C@]2(C)[C@H]2CC[C@]3(C)[C@@H](OS(=O)(=O)c4cccc(S(N)(=O)=O)c4)CC[C@H]3[C@H]12 has what recorded Decomposition in %?
Result: 6

* * *

EXPERIMENT SUMMARY: Hydrolysis in aqueous buffer of various pH values at 37° C., HPLC
Assay type: physicochemical
CONDITIONS USED: pH = 1, 37° C., 1 h
EXPERIMENTAL READOUT: Decomposition in % (%)
Report the value in % with no unit label.

Study these solved cases before continuing.
COMPOUND | Decomposition in %, %
C[C@@H]1CC2=CC(=O)CC[C@]2(C)[C@H]2CC[C@]3(C)[C@@H](OS(=O)(=O)c4cccc(S(N)(=O)=O)c4)CC[C@H]3[C@H]12 | 6
C[C@]12CC[C@H]3[C@@H](CCC4=CC(=O)CC[C@@]43C)[C@@H]1CC[C@@H]2OS(=O)(=O)c1cccc(S(N)(=O)=O)c1 | 6
CCC(=O)O[C@H]1CC[C@H]2[C@@H]3CCC4=CC(=O)CC[C@]4(C)[C@H]3CC[C@]12C [Testosterone Propionate, 3-Oxoandrost-4-en-17β-yl n-propionate, reference compound] | 0

Moving on to another compound below.
Ask: Entry C[C@]12CC[C@@H]3c4ccc(O)cc4CC[C@H]3[C@@H]1CC[C@@H]2OS(=O)(=O)c1cccc(S(N)(=O)=O)c1 : reported Decomposition in % = ?
Result: 7
